- test_summary: Pharmacokinetic experiment in rats after intragastric administration
- Assay type: in vivo
- condition: rat, po, female SD rats, 10 mg/kg, plasma
measurement_type: AUC(0-inf) (ng·h/mL)

Input: Look up AUC(0-inf) for this compound: COc1cc2c(Oc3ccc(NC(=O)C4(C(=O)Nc5ccc(F)cc5)CC4)cc3F)ccnc2cc1OC/C=C/CCCCSC(C)=O [Example 24]
Output: 1070

1 = COc1cc2c(Oc3ccc(NC(=O)C4(C(=O)Nc5ccc(F)cc5)CC4)cc3F)ccnc2cc1OCCCCCNC(=O)CSC(=O)[C@@H](Cc1cn(C)c2ccccc12)NC(C)=O [Example 94]
2 = COc1cc2c(Oc3ccc(NC(=O)C4(C(=O)Nc5ccc(F)cc5)CC4)cc3F)ccnc2cc1OCCCCCNC(=O)CSC(=O)C(C)(C)C [Example 89]
Input: # returns the entry with the larger AUC(0-inf); inputs 1 and 2 Selection: enter the item's label.
Output: 2
(2: 1650 ng·h/mL, 1: 499 ng·h/mL)
